# system tested: T1, SNTG2, Q9NY99
# T1 sequence (Q9NY99 68-166, limits assumed, looked up): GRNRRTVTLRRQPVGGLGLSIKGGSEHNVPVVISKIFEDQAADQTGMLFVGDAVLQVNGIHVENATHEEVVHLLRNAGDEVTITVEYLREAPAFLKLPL
# protocol details: holdup assay
# Parameters: key: below the threshold = too weak to quantify, mostly under pKd 3.1 to 4
# study conditions: plain residues with an end cap or a label only (N-terminal biotin on a linker: ado-ado)
measured parameter: pKd

- binder: "IKLETKKTKL [SLC15A2, Q16348]"
  pKd: 3.62
- binder: "QKNKDREYYV [NRXN3, Q9HDB5]"
  pKd: 3.5
- binder: "ELKAEDEVQI [DCHS2, Q6V1P9]"
  pKd: "below the threshold"
- binder: "YAEKRMLTEV [KCNA6, P17658]"
  pKd: "below the threshold"
- binder: "NSTHNLKDYV [CLDN20, P56880]"
  pKd: "below the threshold"
- binder: "FLVTEFNVML [DFNB31, Q9P202]"
  pKd: "below the threshold"
- binder: "STYCDYTIEI [FAM71C, Q8NEG0]"
  pKd: "below the threshold"

Identify the reported pKd for the following entry. SQDPKKPSRV [CBY2, Q8NA61]
below the threshold
